TARGET: PARK7 (Homo sapiens)
Sequence (Q99497 1-189): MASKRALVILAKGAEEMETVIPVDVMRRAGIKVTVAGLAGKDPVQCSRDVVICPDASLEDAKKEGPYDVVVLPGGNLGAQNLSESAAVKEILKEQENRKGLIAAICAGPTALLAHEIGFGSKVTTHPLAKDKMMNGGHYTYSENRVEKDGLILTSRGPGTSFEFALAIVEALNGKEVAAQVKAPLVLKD
ASSAY_COMMENT: DiFMUAc PARK7 activity assay
Type: biochemical
Design: GST (N, cleaved yes); made in house; host or cells: E. coli BL21(DE3) Rosetta2
DETAILS: 12.5 µM compound, PARK7 0.1 μM, 2 h preincubation, DiFMUAc 300 μM
METRIC: DiFMuAc assay %Inhibiton (12.5 µM) (%)
Please reply with the bare figure in % and do not write the unit itself.

compound=Cc1ccc(C(=O)O)cc1S(=O)(=O)F metric="DiFMuAc assay %Inhibiton (12.5 µM)" unit_descriptor=% reported_measurement=93.6
compound="CC(C#N)NS(=O)(=O)c1cccc(S(=O)(=O)F)c1 (stereo not shown)" metric="DiFMuAc assay %Inhibiton (12.5 µM)" unit_descriptor=% reported_measurement=94.5
compound=CSC1(C(=O)Nc2cccc(S(=O)(=O)F)c2)CC1 metric="DiFMuAc assay %Inhibiton (12.5 µM)" unit_descriptor=% reported_measurement=98.0
compound=O=[N+]([O-])c1ccccc1S(=O)(=O)F metric="DiFMuAc assay %Inhibiton (12.5 µM)" unit_descriptor=% reported_measurement=99.2
compound=O=[N+]([O-])c1cccc(S(=O)(=O)F)c1 metric="DiFMuAc assay %Inhibiton (12.5 µM)" unit_descriptor=% reported_measurement=100.0
compound=Cc1conc1NS(=O)(=O)c1cccc(S(=O)(=O)F)c1 metric="DiFMuAc assay %Inhibiton (12.5 µM)" unit_descriptor=% reported_measurement=98.5

Please examine the following record next.
For PARK7 (Homo sapiens), provide DiFMuAc assay %Inhibiton (12.5 µM) of O=C(CSC(F)(F)F)Nc1cccc(S(=O)(=O)F)c1 please. 81.4

###

TARGET: UniProt Q99497
ASSAY_COMMENT: DiFMUAc PARK7 activity assay
Assay type: biochemical
Set-up: GST (N, cleaved yes); made in house; host or cells: E. coli BL21(DE3) Rosetta2
DETAILS: 100 µM compound, PARK7 0.1 μM, 2 h preincubation, DiFMUAc 300 μM
DiFMuAc assay %Inhibiton (100 µM) values, listed per item
Please reply with the bare figure in % and do not write the unit itself.

molecule="CC(C#N)NS(=O)(=O)c1cccc(S(=O)(=O)F)c1 (stereo not shown)" reported_measurement=94.5

For UniProt Q99497, provide DiFMuAc assay %Inhibiton (100 µM) of Cc1conc1NS(=O)(=O)c1cccc(S(=O)(=O)F)c1 please. 97.5

# iterate: Cc1ccc(C(=O)O)cc1S(=O)(=O)F 93.1

# iterate: CSC1(C(=O)Nc2cccc(S(=O)(=O)F)c2)CC1 100.0

# iterate: O=[N+]([O-])c1cccc(S(=O)(=O)F)c1 100.0

# iterate: O=[N+]([O-])c1ccccc1S(=O)(=O)F 98.2

# iterate: O=C(CSC(F)(F)F)Nc1cccc(S(=O)(=O)F)c1 97.1

###

TARGET: PARK7 (Homo sapiens, UniProt Q99497)
Sequence (Q99497 1-189): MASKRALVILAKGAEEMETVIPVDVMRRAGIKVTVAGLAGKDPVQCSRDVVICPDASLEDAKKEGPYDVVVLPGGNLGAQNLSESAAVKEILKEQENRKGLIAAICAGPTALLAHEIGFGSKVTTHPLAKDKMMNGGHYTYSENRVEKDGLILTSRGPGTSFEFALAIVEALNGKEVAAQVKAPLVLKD
ASSAY_COMMENT: FP assay with Rhodamine110 probe JYQ-107 (IC50 and hit validation)
Type: binding
Design: GST (N, cleaved yes); made in house; host or cells: E. coli BL21(DE3) Rosetta2
DETAILS: 12.5 µM compound, PARK7 0.2 μM, 1 h preincubation, JYQ-107 20 nM; read-out: FP assay %Inhibiton (12.5 µM)
METRIC: inhibition at 12.5 µM

compound="CCN(c1ccc(NC(=O)CCl)cc1)C(C)C [Z56896170]" target="PARK7 (Homo sapiens, UniProt Q99497)" metric="inhibition at 12.5 µM" reported_measurement=100%
compound="CC1CCC(N(C)C(=O)CCl)CC1 (centres unmarked) [Z85923410]" target="PARK7 (Homo sapiens, UniProt Q99497)" metric="inhibition at 12.5 µM" reported_measurement=85.7%

Bench note: what inhibition at 12.5 µM did CCC(C)c1ccc(NC(=O)CCl)cc1 (centres unmarked) [Z56886389] show? 100%

###

FP assay %Inhibiton (12.5 µM) values, listed per item
TARGET: PARK7 (Homo sapiens)
Sequence (Q99497 1-189): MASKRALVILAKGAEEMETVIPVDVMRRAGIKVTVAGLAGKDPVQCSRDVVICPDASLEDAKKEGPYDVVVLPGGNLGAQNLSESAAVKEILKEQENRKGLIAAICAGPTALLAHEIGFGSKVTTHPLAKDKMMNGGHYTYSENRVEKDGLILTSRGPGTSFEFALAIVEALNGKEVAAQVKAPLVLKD
ASSAY_COMMENT: FP assay with Rhodamine110 probe JYQ-107 (IC50 and hit validation)
Assay type: binding
Parameters: GST (N, cleaved yes); made in house; host or cells: E. coli BL21(DE3) Rosetta2
DETAILS: 12.5 µM compound, PARK7 0.2 μM, 1 h preincubation, JYQ-107 20 nM
Please reply with the bare figure in % and do not write the unit itself.

Please review the following examples before continuing.
compound="COC(=O)Nc1ccc(S(=O)(=O)F)cc1[N+](=O)[O-] [Z1741956298]" metric="FP assay %Inhibiton (12.5 µM)" reported_measurement=72.6
compound="O=[N+]([O-])c1ccc(C(F)(F)F)c(S(=O)(=O)F)c1 [Z3396482545]" metric="FP assay %Inhibiton (12.5 µM)" reported_measurement=36.7
compound="O=C(NCCCS(=O)(=O)F)c1cccs1 [Z3267389796]" metric="FP assay %Inhibiton (12.5 µM)" reported_measurement=83.1
compound="Cc1ccc(C(=O)O)cc1S(=O)(=O)F [Z3242849759]" metric="FP assay %Inhibiton (12.5 µM)" reported_measurement=100.0

Please examine the following record next.
Bench note: what FP assay %Inhibiton (12.5 µM) did O=C(Nc1cccc(S(=O)(=O)F)c1)C1CCCC1 [Z1713569513] show? 67.6

###

TARGET: UCHL1 (Homo sapiens, UniProt P09936)
Sequence (P09936 whole entry, species assumed): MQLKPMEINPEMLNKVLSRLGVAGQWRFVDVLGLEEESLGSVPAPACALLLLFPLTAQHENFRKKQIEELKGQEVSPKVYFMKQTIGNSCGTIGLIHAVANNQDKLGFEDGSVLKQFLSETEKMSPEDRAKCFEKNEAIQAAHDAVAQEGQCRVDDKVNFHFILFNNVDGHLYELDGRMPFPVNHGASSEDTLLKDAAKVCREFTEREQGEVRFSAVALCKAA
ASSAY_COMMENT: Gel-based competition assay with probe 8RK59, UCHL1 band
Format: biochemical
DETAILS: compound 2 μM, 1 h; PARK7 and UCHL1 1 μM each; then 8RK59 2 μM 30 min; Figure 3B
METRIC: Inhibition of UCHL1 (disappearance of 8RK59-labeled band)

compound="CN1C(=O)CC(C(=O)N2CCc3nc(NC(=O)[C@H]4CCN(C#N)C4)sc3C2)[C@@H]1c1cccnc1 (stereo partly shown)" reported_measurement="fully inhibit"
compound=N#CN1CC[C@H](C(=O)Nc2nc3c(s2)CN(C(=O)CCCCBr)CC3)C1 reported_measurement="fully inhibit"
compound=N#CN1CC[C@H](C(=O)Nc2nc3c(s2)CN(C(=O)Cc2ccncc2)CC3)C1 reported_measurement="fully inhibit"

###

TARGET: PARK7 (Homo sapiens)
ASSAY_COMMENT: Gel-based competition assay with probe 8RK59, PARK7 band
Format: biochemical
Design: GST (N, cleaved yes); made in house; host or cells: E. coli BL21(DE3) Rosetta2
DETAILS: compound 2 μM, 1 h; PARK7 and UCHL1 1 μM each; then 8RK59 2 μM 30 min; Figure 3B
METRIC: Inhibition of PARK7 (disappearance of 8RK59-labeled band)

compound="CN1C(=O)CC(C(=O)N2CCc3nc(NC(=O)[C@H]4CCN(C#N)C4)sc3C2)[C@@H]1c1cccnc1 (stereo partly drawn)" reported_measurement="less efficiently"
compound=N#CN1CC[C@H](C(=O)Nc2nc3c(s2)CN(C(=O)CCCCBr)CC3)C1 reported_measurement="less efficiently"
compound=N#CN1CC[C@H](C(=O)Nc2nc3c(s2)CN(C(=O)Cc2ccncc2)CC3)C1 reported_measurement="less efficiently"

###

TARGET: PARK7 (Homo sapiens)
ASSAY_COMMENT: FP assay with Rhodamine110 probe JYQ-107 (IC50 and hit validation)
Format: binding
Parameters: GST (N, cleaved yes); made in house; host or cells: E. coli BL21(DE3) Rosetta2
DETAILS: 37.5 µM compound, PARK7 0.2 μM, 1 h preincubation, JYQ-107 20 nM
FP assay %Inhibiton (37.5 µM) values, listed per item
Please reply with the bare figure in % and do not write the unit itself.

compound="CC(C#N)NS(=O)(=O)c1cccc(S(=O)(=O)F)c1 (centres unmarked)" target="PARK7 (Homo sapiens)" metric="FP assay %Inhibiton (37.5 µM)" reported_measurement=100.0
compound=Cc1ccc(C(=O)O)cc1S(=O)(=O)F target="PARK7 (Homo sapiens)" metric="FP assay %Inhibiton (37.5 µM)" reported_measurement=100.0
compound=O=[N+]([O-])c1ccccc1S(=O)(=O)F target="PARK7 (Homo sapiens)" metric="FP assay %Inhibiton (37.5 µM)" reported_measurement=100.0
compound=O=C(Nc1cccc(S(=O)(=O)F)c1)C1CCCC1 target="PARK7 (Homo sapiens)" metric="FP assay %Inhibiton (37.5 µM)" reported_measurement=76.9
compound=O=C(NCCCS(=O)(=O)F)c1cccs1 target="PARK7 (Homo sapiens)" metric="FP assay %Inhibiton (37.5 µM)" reported_measurement=80.1
compound=O=C(CSC(F)(F)F)Nc1cccc(S(=O)(=O)F)c1 target="PARK7 (Homo sapiens)" metric="FP assay %Inhibiton (37.5 µM)" reported_measurement=100.0
compound=Cc1conc1NS(=O)(=O)c1cccc(S(=O)(=O)F)c1 target="PARK7 (Homo sapiens)" metric="FP assay %Inhibiton (37.5 µM)" reported_measurement=100.0
compound=CSC1(C(=O)Nc2cccc(S(=O)(=O)F)c2)CC1 target="PARK7 (Homo sapiens)" metric="FP assay %Inhibiton (37.5 µM)" reported_measurement=100.0

Bench note: what FP assay %Inhibiton (37.5 µM) did O=[N+]([O-])c1ccc(C(F)(F)F)c(S(=O)(=O)F)c1 show? 36.2

# iterate: COC(=O)Nc1ccc(S(=O)(=O)F)cc1[N+](=O)[O-] 75.8

# iterate: O=[N+]([O-])c1cccc(S(=O)(=O)F)c1 100.0
